system.name: human CD33 Q80A (human, UniProt P20138 18-364)
Sequence (P20138 18-364 Q80A limits assumed): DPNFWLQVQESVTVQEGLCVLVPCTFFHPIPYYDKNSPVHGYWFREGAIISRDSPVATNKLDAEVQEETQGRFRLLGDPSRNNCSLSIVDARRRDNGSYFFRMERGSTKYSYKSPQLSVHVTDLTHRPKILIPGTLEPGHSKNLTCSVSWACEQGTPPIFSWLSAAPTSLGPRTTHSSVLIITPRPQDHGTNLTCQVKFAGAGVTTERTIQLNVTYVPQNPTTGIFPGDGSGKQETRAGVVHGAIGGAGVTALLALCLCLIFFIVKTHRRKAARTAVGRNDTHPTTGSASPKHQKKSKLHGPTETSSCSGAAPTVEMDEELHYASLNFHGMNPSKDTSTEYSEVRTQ
measurement.notes: alanine scan, flow cytometry;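 also: HEK293-T cells transiently expressing single-residue alanine mutants of CD33 (alanine swapped to serine), antibody binding read by fluorescence in duplicate, background-subtracted, expressed relative to wild-type CD33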
measurement.label: Mean % WT Binding (% WT)
Give bare numbers, in % WT.

Refmab #1 (antibody, V domains shown, Full-length format is human IgG1 (Absolute Antibody Ab00283-10.0); The alanine scan used IgG or Fab; also called hP67.6) VH: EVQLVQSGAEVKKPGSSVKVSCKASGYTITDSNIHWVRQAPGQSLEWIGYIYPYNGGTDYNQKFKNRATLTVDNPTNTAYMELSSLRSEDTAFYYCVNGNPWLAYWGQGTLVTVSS VL: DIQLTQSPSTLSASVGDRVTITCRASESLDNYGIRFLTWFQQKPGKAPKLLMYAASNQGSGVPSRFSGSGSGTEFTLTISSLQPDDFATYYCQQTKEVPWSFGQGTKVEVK
91.6
Refmab #2 (antibody, V domains shown, Full-length format is human IgG1 Fc silent (PG-LALA); The alanine scan used IgG or Fab) VH: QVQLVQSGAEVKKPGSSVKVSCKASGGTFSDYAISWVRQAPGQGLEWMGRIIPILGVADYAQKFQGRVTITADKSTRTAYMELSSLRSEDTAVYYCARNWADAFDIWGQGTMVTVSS VL: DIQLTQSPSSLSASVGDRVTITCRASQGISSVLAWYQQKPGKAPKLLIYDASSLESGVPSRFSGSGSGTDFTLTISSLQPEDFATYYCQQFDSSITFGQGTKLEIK
112
Refmab #3 (antibody, V domains shown, Full-length format is human IgG1 Fc silent (PG-LALA); The alanine scan used IgG or Fab) VH: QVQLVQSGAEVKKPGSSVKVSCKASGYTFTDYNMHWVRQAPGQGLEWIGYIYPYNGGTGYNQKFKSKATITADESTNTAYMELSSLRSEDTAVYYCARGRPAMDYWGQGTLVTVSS VL: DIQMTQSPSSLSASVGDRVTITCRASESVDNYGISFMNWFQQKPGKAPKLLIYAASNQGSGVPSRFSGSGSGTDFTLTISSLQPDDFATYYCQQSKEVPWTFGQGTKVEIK
123

In the following, a different binder is considered.
Please give the measured Mean % WT Binding for this binder: Refmab #4 (antibody, V domains shown, Full-length format is human IgG1 Fc silent (PG-LALA); The alanine scan used IgG or Fab) VH: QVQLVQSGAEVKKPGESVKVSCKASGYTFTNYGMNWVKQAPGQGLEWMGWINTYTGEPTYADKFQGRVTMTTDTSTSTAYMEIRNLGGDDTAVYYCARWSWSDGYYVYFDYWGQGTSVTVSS VL: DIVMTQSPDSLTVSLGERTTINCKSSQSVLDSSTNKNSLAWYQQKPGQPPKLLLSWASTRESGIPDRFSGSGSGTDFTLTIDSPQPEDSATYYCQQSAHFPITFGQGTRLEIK
124
